TESTED_ON: GRABeCB2.0 sensor (Homo sapiens, UniProt P21554, S383T, form not given)
Sequence (P21554 whole entry S383T, looked up, form open): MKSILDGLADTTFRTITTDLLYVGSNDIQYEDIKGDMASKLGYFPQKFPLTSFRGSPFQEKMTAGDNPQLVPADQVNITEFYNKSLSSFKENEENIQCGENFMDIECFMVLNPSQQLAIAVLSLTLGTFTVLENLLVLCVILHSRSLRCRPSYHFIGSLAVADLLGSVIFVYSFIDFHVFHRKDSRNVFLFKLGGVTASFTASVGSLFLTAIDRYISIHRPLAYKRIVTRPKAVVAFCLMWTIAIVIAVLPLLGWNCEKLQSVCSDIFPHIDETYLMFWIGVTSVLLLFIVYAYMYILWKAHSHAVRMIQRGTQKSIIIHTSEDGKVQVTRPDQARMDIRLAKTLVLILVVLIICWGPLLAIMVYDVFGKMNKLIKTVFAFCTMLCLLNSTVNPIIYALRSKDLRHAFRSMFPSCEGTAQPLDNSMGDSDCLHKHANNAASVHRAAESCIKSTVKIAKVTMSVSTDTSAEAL
Assay type: cell-based
STUDY_CONDITIONS: read-out: IC50 as weak antagonists (normalized curve)
OBSERVATION_TYPE: IC50 (nM)
Dear colleague, please return just the value in nM, with no unit written.

Tell me its IC50 given CCc1c(C(=O)NCCc2ccc(N3CCCCC3)cc2)[nH]c2ccc(Cl)cc12 as the entry.
787

====

TESTED_ON: GRABeCB2.0 sensor (Homo sapiens, UniProt P21554, S383T, form not given)
STUDY_CONDITIONS: HEK293 cells, without BSA, ΔF/F0 4-5 min; read-out: EC50 at inducing GRABeCB2.0 fluorescent signal
OBSERVATION_TYPE: EC50 (nM)
Quick reminder: number only, in nM, skip the unit.

Give reported EC50 value for CC(=O)OCCn1c(C)c(C)s/c1=N\C(=O)C1C(C)(C)C1(C)C [MRI-2594]
527

State its EC50: CC(=O)OCCn1c(=NC(=O)C2C(C)(C)C2(C)C)sc2cc(C)ccc21 [MRI-2687]
1300
